target: Lysine-specific histone demethylase 1A (Homo sapiens, UniProt O60341); experiment: Inhibition of recombinant LSD1 (unknown origin) using H3K4me2 as substrate by fluorescence assay
pIC50: −log10 of the molar value.
quantity-name: pIC50

Below are worked cases with known answers.
Cc1cc(N)n2nc(SCc3ccccc3)nc2n1 : < 4.30
Cc1cc(NN)n2nc(SCc3ccccc3)nc2n1 : 6.05
Cc1cc(N2CCCC(NC(=O)OC(C)(C)C)C2)n2nc(SCc3ccccc3)nc2n1 (stereo unspecified) : < 4.30
NNc1cc(-c2ccccc2)nc2nc(SCc3ccccc3)nn12 : < 4.30
Cc1cc(NCCOCCOCCN)n2nc(SCc3ccccc3)nc2n1 : < 4.30

Please look at the following compound next.
**Query** // returns reported pIC50 for input C/C(=N\NC(=O)c1cccc(S(=O)(=O)N2CCOCC2)c1)c1cc(Cl)ccc1O
**Result** 7.61
